Test system: Chlamydia trachomatis
experimental-protocol: Bactericidal activity against Chlamydia trachomatis serovar L2 infected in human HeLa cells assessed as growth inhibition compound treated at 5 to 200 uM for 1 hr prior infection measured 24 hrs post infection by microscopy
Assay type: functional, organism-based
The source made the active and inactive calls. The calls are words filed in the database; no cut-off is given here.
// allowed return values: active, inactive

Known results for molecules:
O=C(NCCN1OC[C@@H](NC(=O)c2ccc3cccc(O)c3n2)C1=O)c1ccc2cccc(O)c2n1; active
O=C(NCCN1OC[C@@H](NC(=O)c2ccc3ccccc3n2)C1=O)c1ccc2ccccc2n1; inactive
O=C(N[C@@H]1CON(CCc2c[nH]cn2)C1=O)c1cccc(O)c1O; active

Now consider the entry below.
Query block: Record lookup: outcome of this test for `COc1cccc(C(=O)N[C@@H]2CON(CCc3c[nH]cn3)C2=O)c1OC` ?
Result block: inactive
